Assay: NCI Yeast Anticancer Drug Screen. Data for the bub3 strain (AID 167)
Conditions: S. cerevisiae bub3 mutant strain, at 50.0 µM
This is part of a sample that, as a whole, favours compounds with a hit. Of some 79,000 tested, about 15% had one in any assay. Activity calls are given as the source filed them. No stated cut-off is given here; in the data, active means growth inhibition above about 70%; inactive means the rest.
Classes used: 1 (active), 0 (inactive)

compound	classification
CCOC(=O)C1C(C(C)C)C2(C#N)C(=N)OC1(C)C2(C#N)C#N (stereo unspecified)	0
O=[n+]1c2ccccc2n([O-])c2cc(Cl)ccc21	1
Nc1ccc(-c2ccc(N)c(S(=O)(=O)O)c2)cc1S(=O)(=O)O	0
CCCCN(CCCC)CCCCCCCCCCO	1
Cc1cccc2c(N)c3ccccc3nc12	0
CC(=O)c1ccc2c(c1)CCc1ccccc1-2	0
CCCCCC/C=C1\CCC(CN2CCCC2)C1=O (stereo unspecified)	1
N#CCc1cccc2ccccc12	0
COC(=O)c1nc(=S)[nH]c(C(=O)OC)c1C(=O)c1ccc(Cl)c(Cl)c1	1
O=Cc1ccc(-c2ccc(-c3ccc(CO)s3)o2)s1	0
CCCCCCCCCCCC1=NCCCN1CCCC	1
COc1ccc2c(c1)C(OC)C1c3c(cc4c(c3-2)OCO4)CCN1C (stereo unspecified)	0
COc1cc(/C=C2\SC(=S)N(/C=C/c3nc4ccccc4[nH]c3=O)C2=O)cc(OC)c1OC	0
CC1(C)OC2C(COC(c3ccccc3)(c3ccccc3)c3ccccc3)OC(c3c[nH]c4c(N)ncnc34)C2O1 (stereo unspecified)	1
COc1ccc(OC)c(Cc2cnc3nc(N)nc(N)c3c2C)c1	0
CCCN(CCC)C(=O)c1ccc(C)cc1	0
O=C1/C(=C/c2ccccc2)CCC/C1=C\c1ccccc1	1
CCN1CCCC(Nc2cc(C)nc(/N=C(/N)Nc3ccc(Cl)c(Cl)c3)n2)C1 (stereo unspecified)	1
Cc1cc(C)c(C#N)c(Sc2nc(C)c([N+](=O)[O-])c(C)c2C#N)n1	0
Clc1ccc(-n2ncc3c(NCCCN4CCOCC4)ncnc32)cc1	0
CN(C)c1ccc2cc3c(cc2c1)Oc1ccccc1N3.[Cl][Zn][Cl]	1

###

Parameter growth inhibition: see the listing below.
Assay: NCI Yeast Anticancer Drug Screen. Data for the cln2 rad14 strain (AID 165);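 further: 0% = growth equal to vehicle treated cultures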
Settings: S. cerevisiae cln2 rad14 strain, at 50.0 µM (retest, dose inferred, filed as 5.0), hits give high values
Experimental: Growth inhibition of yeast strains with defined genetic alterations is measured as a screen for potential anti-cancer activity. Selected strains with alterations in DNA damage repair or cell cycle control were exposed to compounds and growth inhibition was measured relative to vehicle treated controls. The strain used in this assay is cln2 rad14
Compounds without any hit were thinned out: in the full panel of roughly 79,000, 15% have a hit. Calls of active or inactive are those of the source. No stated cut-off is given here; in the data, active means growth inhibition above about 70%; inactive means the rest.

compound	growth inhibition
COc1cc(OC)c(/C=C/c2c3ccccc3cc[n+]2C)c(OC)c1	64% (inactive)
Cc1ccccc1N=NC(C#N)C#N	99% (active)
COc1ccc2c(c1)c(CC(=O)O)c(C)n2C(=O)c1ccc(Cl)cc1	32% (inactive)
CCOC(=O)C(NC(C)=O)C(=O)c1ccccc1 (stereo unspecified)	-4% (inactive)
CCOc1ccc2c(c1)/C(=C\C=C\C1CC(C)C3CC(OCC)CCC3N1CC)CC(C)N2CC (stereo unspecified)	83% (active)
CN(C)CC(C)(CN(C)C)C(=O)/C=C/c1c(Cl)cccc1Cl	56% (inactive)
CCOc1ccc(C(C[N+](=O)[O-])Sc2ccccc2N)cc1 (stereo unspecified)	29% (inactive)
CCCCCCN(CCCCCC)CCCNc1nccc2ccccc12	13% (inactive)
Cn1c(COC(=O)NC2CCCCC2)c(COC(=O)NC2CCCCC2)c2ccc3cc(Cl)c(Cl)cc3c21	12% (inactive)
CC(=O)N1CC(=O)NC1=S	7% (inactive)
O=[N+]([O-])c1ccc(N2CCN(Cc3ccccc3)CC2)c2c1no[n+]2[O-]	22% (inactive)

###

Assay: NCI Yeast Anticancer Drug Screen. Data for the mlh1 rad18 strain (AID 175)
Conditions: S. cerevisiae mlh1 rad18 strain growth inhibition; at 5.0 µM (retest, dose inferred, filed as 0.5); hits give high values
The panel holds about 79,000 compounds, 15% with a hit somewhere; the sample as a whole holds those more often. *1 amine or outer side, *2 acyl side, *3 side chain or, on linkers, in order; H or OH if unused. Where a SMILES comes first, the peptide text is derived from it. Bridges are numbered along the chain shown (N, C = ends). Roman numbers before positions name the chains, in order. [ ]: non-standard residue; d: D form. Actinocin(1to9) = Cc1c2oc3c(C)ccc(C(=O)[*:2])c3nc-2c(C(=O)[*:1])c(N)c1=O; NMeV = CN[CH](C(=O)O)C(C)C; Sar = CNCC(=O)O
metric: growth inhibition (%)

compound	test value
S=c1[nH]c2cc(Cl)ccc2s1	-12
C[C@@]1(CO)[C@H](O)CC[C@@]2(C)[C@H]1CC[C@H]1C[C@@H]3C[C@@]12CC[C@@]3(O)COC(=O)CN	6
COC1=CC(=O)c2c(O)c3c(c(O)c2C1=O)CC(C)(O)OC3 (stereo unspecified)	89
CCC(C)C1NC(=O)C(NC(=O)c2c3nc4c(C(=O)NC5C(=O)NC(C(C)CC)C(=O)N6CCCC6C(=O)N(C)CC(=O)N(C)C(C(C)C)C(=O)OC5C)ccc(C)c4oc-3c(C)c(=O)c2N)C(C)OC(=O)C(C(C)C)N(C)C(=O)CN(C)C(=O)C2CCCN2C1=O (stereo unspecified) (I: TIP[Sar][NMeV] / II: TIP[Sar][NMeV]; ester I:1-I:C, II:1-II:C; linker I:N-II:N via Actinocin(1to9); configuration not given here)	67
Cc1cc(C(N)=O)cc(C)c1C(=O)OCCCl	-57
CC1(C=O)CCC23COC4(CCC5C6(C)CCC(OC7OCC(OC8OC(CO)C(O)C(OC9OC(CO)C(O)C(O)C9O)C8OC8OCC(O)C(O)C8O)C(O)C7OC7OC(CO)C(O)C(O)C7O)C(C)(C)C6CCC5(C)C4(C)CC2O)C3C1 (stereo unspecified)	22

###

Experiment: NCI Yeast Anticancer Drug Screen. Data for the mec2-1 strain (AID 157)
Settings: S. cerevisiae mec2-1 strain, at 5.0 µM (retest, dose inferred, filed as 0.5), hits give high values
Compounds without any hit were thinned out: in the full panel of roughly 79,000, 15% have a hit.

compound	growth inhibition [%]
C/C(=N\Nc1ccc(Cl)cc1)C(=O)O	-2
CCOC(=O)C(NC(C)=O)C(=O)c1ccccc1 (configuration not stated)	-3
CCOC(=O)c1cc(CC)sc1NC(=O)CC(C)=O	35
CC1C(c2ccccc2)OCCN1C(=S)Nc1ccc(S(=O)(=O)N2CCCCC2)cc1 (configuration not stated)	46
CCCCN(CCCC)C(=O)C(C)OC(C)=O (configuration not stated)	-4
Oc1ccc2ccccc2c1N=Nc1nccs1	51
COC1=CC(=O)c2c(O)c3c(c(O)c2C1=O)CC(C)(O)OC3 (configuration not stated)	62

###

Assay: NCI Yeast Anticancer Drug Screen. Data for the cln2 rad14 strain (AID 165);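 further: 0% = growth equal to vehicle treated cultures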
Conditions: S. cerevisiae cln2 rad14 strain, at 50.0 µM
Compounds without any hit were thinned out: in the full panel of roughly 79,000, 15% have a hit. Active and inactive are the calls of the source. No stated cut-off is given here; in the data, active means growth inhibition above about 70%; inactive means the rest.
Classes used: active, inactive

molecule	classification
O=C(/C=C/c1ccccc1)CCC1C(=O)c2ccccc2C1=O	inactive
Clc1ccc(Cc2nc3ccccc3s2)cc1	active
Nc1ccc(C(=O)/C=C/c2ccccc2)cc1	inactive
CC(C)=CCCC(C)C1=C(O)C(=O)C(C)=CC1=O (stereo unspecified)	inactive
COc1ccc2c(c1)C(OC)C1c3c(cc4c(c3-2)OCO4)CCN1C (stereo unspecified)	inactive
CN(C)CCN(C)CC(C)(C)C(=O)/C=C/c1ccc(Cl)c(Cl)c1	inactive
CC1(C)CCC[C@]2(C)[C@@H](C=O)C(C=O)=CC[C@@H]12	active
c1csc(-c2[nH]nc3c2CCc2ccccc2-3)c1	active
CCCCCCCCCCCCCCCCSC(=NCC)NCC	active
CN(C)CCSC1=Nc2ccc(Cl)cc2C(c2ccccc2Cl)N(C)C1 (stereo unspecified)	active
O=C(/C=C/c1ccccc1)c1ccccc1O	inactive
O=[N+]([O-])c1ccc([I+]c2ccccc2)cc1	active
Cc1cc2cccnc2c2ncccc12	active
OC(Cc1cc(CC(O)(C(F)(F)F)C(F)(F)F)nc(CC(O)(C(F)(F)F)C(F)(F)F)c1)(C(F)(F)F)C(F)(F)F	active
Oc1ccc(Cl)cc1C(c1cc(Cl)ccc1O)C(Cl)(Cl)Cl	active
OC(CSc1ccccc1)CN1CCN(c2ccc(Cl)cc2)CC1 (stereo unspecified)	inactive
CCCCCCCCCCCC1N=C(N)N=C(N)N1c1cccc(Br)c1 (stereo unspecified)	active
C/C(=N\NC(=S)N(C)C)c1ccccn1	active
O=C(CCl)N(c1ccccc1)c1ccccc1	inactive
Cc1c(O)ccc(SC#N)c1C	active
OC(c1cc(-c2ccc(C(F)(F)F)cc2)nc(C(F)(F)F)c1)C1CCCCN1 (stereo unspecified)	inactive
CC1C(c2ccccc2)OCCN1C(=S)Nc1ccc(S(=O)(=O)N2CCCCC2)cc1 (stereo unspecified)	active
O=C(CBr)c1ccc(OC(=O)c2ccccc2)cc1	inactive
S=C1SCN(Cc2cccs2)CN1Cc1cccs1	inactive
CC[n+]1ccc(Nc2ccc(NC(=O)c3ccc(Nc4cc[n+](CC)c5ccc([N+](=O)[O-])cc45)cc3)cc2)cc1	active
CC(C)(C)c1ccc(CCO)cc1	inactive
O=C(c1ccccc1)C(Br)C(Br)c1ccccc1 (stereo unspecified)	inactive
C[n+]1ccccc1C[n+]1ccccc1	inactive
CCOC(=O)c1[nH]c(C#N)c(C(=O)OCC)c1C	inactive
COc1cc(NC(=O)C2=C(C)NC(C)=C(C(=O)Nc3cc(OC)c(Cl)cc3OC)C2c2cccc([N+](=O)[O-])c2)c(OC)cc1Cl	active
Oc1c(Cl)cc(Cl)cc1C=NCC1CCC(CN=Cc2cc(Cl)cc(Cl)c2O)CC1 (stereo unspecified)	active
Cc1cc(I)nc2ccccc12	inactive
CCCCCCCCCCCC[N+]1(CCCCCCCCCCCC)CCCC(C)C1 (stereo unspecified)	active
CCN1CCCC(Nc2cc(C)nc(/N=C(/N)Nc3ccc(Cl)c(Cl)c3)n2)C1 (stereo unspecified)	active
Clc1ccc(-n2ncc3c(NCCCN4CCOCC4)ncnc32)cc1	inactive
O=[N+]([O-])c1cc(-c2ccccc2)c(O)c([N+](=O)[O-])c1	active
C=C(C)C1CC2(C)C(C)CC(O)CC2C(OC(=O)C=C(C)C)C1O (stereo unspecified)	inactive
CCCCCC[C@@H](O)C/C=C\CCCCCCCC(=O)OCCOC	active
CCOc1ccc(C(C[N+](=O)[O-])Sc2ccccc2N)cc1 (stereo unspecified)	active
O=Cc1ccc(-c2ccc(-c3ccc(CO)s3)o2)s1	inactive
CCC(C)(O)Cc1ccc(Cl)cc1 (stereo unspecified)	inactive
CCOC(=O)C1(C)CCCC1N (stereo unspecified)	inactive
CC(CSc1n[nH]c(=S)s1)c1ccccc1 (stereo unspecified)	active
[Cl-].[Rh+3].c1ccc(-c2ccnc3c2ccc2c(-c4ccccc4)ccnc23)cc1.c1ccc(-c2ccnc3c2ccc2c(-c4ccccc4)ccnc23)cc1.c1ccc(-c2ccnc3c2ccc2c(-c4ccccc4)ccnc23)cc1	active
CCCCCCCCCCCC[n+]1ccc2ccccc2c1	active
Cc1cc(C)c(C#N)c(Sc2nc(C)c([N+](=O)[O-])c(C)c2C#N)n1	inactive

These measurements were taken from PubChem BioAssay (NCI).
